- targetOrSystem: panel of more than 300 wild-type and mutant kinases (313 kinase panel) (Homo sapiens, UniProt Q9BXA7)
- measurementProtocol: Kinase profiling in a biochemical assay panel (mobility shift assays and ELISA), %-inhibition at 1 μM; selectivity entropy
- conditionLabel: kinase TSSK1; 1 μM
parameter: %-inhibition of TSSK1 (%)
Numbers only, in %.

Examples with answers:
CC(C)(C)c1nc(-c2cccc(NS(=O)(=O)c3c(F)cccc3F)c2F)c(-c2ccnc(N)n2)s1; 8
COc1cc(Nc2c(C#N)cnc3cc(OCCCN4CCN(C)CC4)c(OC)cc23)c(Cl)cc1Cl; 29
Cc1ccc(C(=O)Nc2ccc(CN3CCN(C)CC3)c(C(F)(F)F)c2)cc1C#Cc1cnc2cccnn12; -4

Quick request: %-inhibition of TSSK1 for each listed item, please.
1. Cc1cn(-c2cc(NC(=O)c3ccc(C)c(Nc4nccc(-c5cccnc5)n4)c3)cc(C(F)(F)F)c2)cn1
2. CNC(=O)c1cc(Oc2ccc(NC(=O)Nc3ccc(Cl)c(C(F)(F)F)c3)c(F)c2)ccn1

[A]
[-2.32, -7]

Quick one: give me %-inhibition of TSSK1 for each item below, same order please.
1. CC(=O)Nc1cccc(-n2c(=O)n(C3CC3)c(=O)c3c(Nc4ccc(I)cc4F)n(C)c(=O)c(C)c32)c1
2. CO[C@H]1C[C@@H]2CC[C@@H](C)[C@@](O)(O2)C(=O)C(=O)N2CCCC[C@H]2C(=O)O[C@H]([C@H](C)C[C@@H]2CC[C@@H](OCCO)[C@H](OC)C2)CC(=O)[C@H](C)/C=C(\C)[C@@H](O)[C@@H](OC)C(=O)[C@H](C)C[C@H](C)/C=C/C=C/C=C/1C
3. C[C@@H](Oc1cc(-c2cnn(C3CCNCC3)c2)cnc1N)c1c(Cl)ccc(F)c1Cl

[A]
[-5, -6, 21]

Hey, can you go through the list below and give me %-inhibition of TSSK1 for every item?
1. O=S(=O)(c1cccc2cnccc12)N1CCCNCC1
2. COc1cc2c(Nc3ccc(Br)cc3F)ncnc2cc1OCC1CCN(C)CC1

[A]
26
2.66

List %-inhibition of TSSK1 for every entry below, keeping the order given.
1. CCN(CC)CCNC(=O)c1c(C)[nH]c(/C=C2\C(=O)Nc3ccc(F)cc32)c1C
2. N#CC[C@H](C1CCCC1)n1cc(-c2ncnc3[nH]ccc23)cn1
3. CS(=O)(=O)CCNCc1ccc(-c2ccc3ncnc(Nc4ccc(OCc5cccc(F)c5)c(Cl)c4)c3c2)o1
4. Cc1nc(Nc2ncc(C(=O)Nc3c(C)cccc3Cl)s2)cc(N2CCN(CCO)CC2)n1
5. CCCS(=O)(=O)Nc1ccc(F)c(C(=O)c2c[nH]c3ncc(-c4ccc(Cl)cc4)cc23)c1F

[A]
[85, 39, -3.21, -4.66, -4]

The measurements presented in this section are drawn from paper PMC3961306.
